- assay-system: Chaetomium thermophilum ALKO4265 cellobiohydrolase Ct Cel7A (Ct CBH/Cel7A), recombinant, SEQ ID NO: 8 (Thermochaetoides thermophila)
- Sequence (A7WNU1 19-532): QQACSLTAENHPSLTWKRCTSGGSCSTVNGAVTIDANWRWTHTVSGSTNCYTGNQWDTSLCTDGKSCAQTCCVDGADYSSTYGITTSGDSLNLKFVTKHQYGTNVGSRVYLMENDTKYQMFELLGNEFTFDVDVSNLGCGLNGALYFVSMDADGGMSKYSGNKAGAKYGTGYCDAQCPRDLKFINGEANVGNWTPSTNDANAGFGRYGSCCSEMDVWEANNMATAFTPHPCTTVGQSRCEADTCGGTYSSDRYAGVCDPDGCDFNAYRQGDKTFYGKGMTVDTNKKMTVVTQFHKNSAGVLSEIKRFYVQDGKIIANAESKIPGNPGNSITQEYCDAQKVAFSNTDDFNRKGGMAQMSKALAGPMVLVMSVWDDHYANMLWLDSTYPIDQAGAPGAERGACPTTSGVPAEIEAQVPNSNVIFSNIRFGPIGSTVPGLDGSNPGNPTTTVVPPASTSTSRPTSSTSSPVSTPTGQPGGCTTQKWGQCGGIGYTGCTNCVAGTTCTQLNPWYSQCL
- assay-name: Cellobiose inhibition constant, CNPLac as substrate
measured-property: Ki (µM)
Reply numerically in µM, unit not repeated.

Ask: Give the measured Ki of OC[C@H]1O[C@@H](O[C@H]2[C@H](O)[C@@H](O)C(O)O[C@@H]2CO)[C@H](O)[C@@H](O)[C@@H]1O (stereo partly shown) [cellobiose] .
Reply: 39

* * *

- assay-system: Acremonium thermophilum ALKO4245 cellobiohydrolase At Cel7A (At CBH/Cel7A), recombinant, SEQ ID NO: 6 (Phialemonium thermophilum, UniProt A7WNT9)
- Sequence (A7WNT9 18-523): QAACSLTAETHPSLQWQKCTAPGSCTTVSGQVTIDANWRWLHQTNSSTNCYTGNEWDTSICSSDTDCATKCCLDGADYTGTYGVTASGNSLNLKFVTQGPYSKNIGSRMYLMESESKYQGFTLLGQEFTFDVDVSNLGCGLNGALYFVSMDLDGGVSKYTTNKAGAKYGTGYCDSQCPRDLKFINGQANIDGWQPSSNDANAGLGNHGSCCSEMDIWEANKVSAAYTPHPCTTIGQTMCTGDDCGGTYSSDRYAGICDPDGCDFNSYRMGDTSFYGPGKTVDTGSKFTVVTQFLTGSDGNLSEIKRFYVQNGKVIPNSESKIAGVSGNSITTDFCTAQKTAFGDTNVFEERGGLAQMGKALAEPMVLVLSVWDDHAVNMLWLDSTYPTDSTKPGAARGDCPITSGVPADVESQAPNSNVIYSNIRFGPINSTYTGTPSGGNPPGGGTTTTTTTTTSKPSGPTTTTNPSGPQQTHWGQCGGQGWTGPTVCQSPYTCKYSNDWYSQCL
- assay-name: Cellobiose inhibition constant, CNPLac as substrate
- Description: The Michaelis-Menten and cellobiose inhibition constants were determined from the cellobiohydrolases produced heterologously in T. reesei (Examples 14 and 15). The enzymes were purified as described in Example 2. Protein concentrations of purified enzymes were measured by their absorption at 280 nm using a theoretical molar extinction co-efficient, which were calculated from the amino acid sequences (Gill and von Hippel, 1989). […]
measured-property: Ki

Ask: For OC[C@H]1O[C@@H](O[C@H]2[C@H](O)[C@@H](O)C(O)O[C@@H]2CO)[C@H](O)[C@@H](O)[C@@H]1O (stereo partly shown) , what is its reported Ki?
Reply: 141 µM
